Molecular target: HLA-A*0301 (human)
Assay: competition with 125I-labeled standard peptide for purified HLA-A*0301, gel filtration
# key: entry, value: binding affinity ratio (IC50 of standard peptide / IC50 of test peptide)
Measured parameter: binding affinity ratio (IC50 of standard peptide / IC50 of test peptide)

| Binder | Endpoint result |
| --- | --- |
| LVFRHGDR (modifications not checked) [LVFRHGDR (PAP, position 40, 8 amino acids)] | 0.0003 |
| NLLHETDSA (modifications not checked) [… (PSM, position 3, 9 amino acids)] | 0.0006 |
| NFTEIASKF (modifications not checked) [… (PSM, position 638, 9 amino acids)] | 0.0005 |
| MSLLKNRFLR (modifications not checked) [… (PSA, position 99, 10 amino acids)] | 0.007 |
